Reference source for all entries: PubChem BioAssay (NCATS)

EXPERIMENT SUMMARY: Quantitative High-Throughput drug screen in 47 multiple myeloma cell lines against the NCATS MIPE library collection: JJN3_DSMZ cell viability assay (AID 1918966; also: nearly all actives have a fitted effect of over 50% in size)
STATED CONDITIONS: JJN3 myeloma cells viability, CellTiter-Glo ATP, 48 h; series mostly up to 45.8 µM
Records with an inconclusive call do not appear. Calls of active or inactive are those of the source. Calls follow the shape of the dose curve; as a rule, active = well fitted cell-killing curve with a large enough effect; inconclusive = small, poorly fitted or top-dose-only effect, or effect the other way; inactive = no such curve, though single readings can be large or run the other way.
Give one outcome, nothing more. List: active, inactive

Qu. Please let me know the test result on file for COC[C@@H](NC(C)=O)C(=O)NCc1ccccc1 .
Ans. inactive

Qu. Please let me know the test result on file for N[C@@H](Cc1ccc(N(CCCl)CCCl)cc1)C(=O)O .
Ans. active

Qu. Please let me know the test result on file for Cc1cc(SCc2sc(-c3ccc(C(F)(F)F)c(F)c3)nc2C)ccc1OCC(=O)O .
Ans. inactive

Qu. Please let me know the test result on file for CC(C)CC(N(C)C)C1(c2ccc(Cl)cc2)CCC1 (stereo not given) .
Ans. inactive

Qu. Please let me know the test result on file for COC[C@H]1OC(=O)c2coc3c2[C@@]1(C)C1=C(C3=O)C2CCC(=O)[C@@]2(C)C[C@H]1OC(C)=O (stereo not given in full) .
Ans. active

Qu. Please let me know the test result on file for CN(C)CCN(C)CCc1ccc(Cl)c(Cl)c1 .
Ans. inactive

Qu. Please let me know the test result on file for C[C@@H]1[C@@H](CC(C[C@H]2O[C@@H]3O[C@]4(C)CC[C@@H]5[C@H](C)CC[C@@H]([C@H]2C)[C@@]35OO4)C[S+](=O)([O-])c2ccc(COC(=O)N(C)C)cc2)O[C@@H]2O[C@]3(C)CC[C@H]4[C@H](C)CC[C@@H]1[C@@]24OO3 (stereo not given in full) .
Ans. active

Qu. Please let me know the test result on file for CC(O)(CS(=O)(=O)c1ccc(F)cc1)C(=O)Nc1ccc(C#N)c(C(F)(F)F)c1 (stereo not given) .
Ans. active

Qu. Please let me know the test result on file for C[C@@H]1O[C@@H](O[C@H]2C[C@@H](O)[C@]3(CO)[C@H]4[C@H](O)C[C@]5(C)[C@@H](C6=CC(=O)OC6)CC[C@]5(O)[C@@H]4CC[C@]3(O)C2)[C@H](O)[C@H](O)[C@H]1O .
Ans. active

Qu. Please let me know the test result on file for C[C@@H]1[C@@H](C(=O)C[C@H]2O[C@@H]3O[C@]4(C)CC[C@@H]5[C@H](C)CC[C@@H]([C@H]2C)[C@@]35OO4)O[C@@H]2O[C@]3(C)CC[C@H]4[C@H](C)CC[C@@H]1[C@@]24OO3 .
Ans. active

Qu. Please let me know the test result on file for O=c1[nH]c2ccccc2n1CCCN1CCC(n2c(=O)[nH]c3cc(Cl)ccc32)CC1 .
Ans. inactive

Qu. Please let me know the test result on file for Fc1ccc(C(OCCN2CCN(CCCc3ccccc3)CC2)c2ccc(F)cc2)cc1 .
Ans. active

Qu. Please let me know the test result on file for CNC(=O)N1N=C(c2ccc(N)cc2)c2cc3c(cc2CC1C)OCO3 (stereo not given) .
Ans. active

Qu. Please let me know the test result on file for Cn1cc(C2=C(c3cn(C4CCN(Cc5ccccn5)CC4)c4ccccc34)C(=O)NC2=O)c2ccccc21 .
Ans. active

Qu. Please let me know the test result on file for COc1ccc2c(c1OC)CN1CCc3cc4c(cc3C1C2)OCO4 (stereo not given) .
Ans. active

###

EXPERIMENT SUMMARY: Confirmatory qHTS to identify inhibitors of SARS-CoV-2 cell entry (AID 1645844); also: potency is read from the fitted curve at half-maximal effect; nearly all actives have a fitted effect of over 45% in size
STATED CONDITIONS: SARS-CoV-2 pseudotyped particle cell entry, luciferase; series mostly up to 57.2 µM
Inconclusive results are not listed. Calls of active or inactive are those of the source. Calls follow the shape of the full dose curve.
So I've got a bunch of compounds here, and I need their Potency values.

Lab book: Potency of O=C1C(=O)c2ccccc2C(O)=C1C1CCC(c2ccc(Cl)cc2)CC1 (centres undefined) noted as 12.1 µM (active)

Lab book: Potency of CCC1=C[C@@H]2CN(C1)Cc1c([nH]c3ccccc13)[C@@](C(=O)OC)(c1cc3c(cc1OC)N(C)[C@H]1[C@@](O)(C(=O)OC)[C@H](OC(C)=O)[C@]4(CC)C=CCN5CC[C@]31[C@@H]54)C2 noted as 1.48 µM (active)

Lab book: Potency of CN(C)C(=O)C(CCN1CCC(O)(c2ccc(Cl)cc2)CC1)(c1ccccc1)c1ccccc1 noted as 21.5 µM (active)

###

Test system: DIV30
EXPERIMENT SUMMARY: qHTS profiling for inhibitors of Plasmodium falciparum proliferation (AID 504749); also: nearly all actives have a fitted effect of over 60% in size; also: potency is read from the fitted curve at half-maximal effect
STATED CONDITIONS: P. falciparum in erythrocytes, SYBR Green DNA, 72 h; series mostly up to 28.7 µM
Records with an inconclusive call do not appear. Activity calls are given as the source filed them. Calls follow the shape of the dose curve; as a rule, active = well fitted inhibition curve with a large enough effect; inconclusive = small, poorly fitted or top-dose-only effect; inactive = flat fitted curve, though single readings scatter.
RECORDED ENDPOINT: Potency

As a guide, the following entries are already answered.
COMPOUND | VAL
Cc1ccc(S(=O)(=O)N[C@@H](CCCCN)C(=O)CCl)cc1 | inactive
NCC(CC(=O)O)c1ccc(Cl)cc1 (stereo not given) | inactive
CCCC(C)(COC(N)=O)COC(=O)NC(C)C (stereo not given) | inactive
O=C(O)c1ccc2[nH]cc(CCCCN3CC=C(c4ccccc4)CC3)c2c1 | inactive

Lab book: Potency of CN1C(=S)CN=C(c2ccccc2)c2cc(Cl)ccc21 noted as inactive

Lab book: Potency of Oc1cc(Cl)ccc1Oc1ccc(Cl)cc1Cl noted as 6.75 µM (active)

Lab book: Potency of C#CCOC(C(=O)OCCN(C)C)(c1ccccc1)c1ccccc1 noted as inactive

Lab book: Potency of O=c1[nH]c2ccccc2n1CCCN1CCC(n2c(=O)[nH]c3cc(Cl)ccc32)CC1 noted as 7.57 µM (active)

Lab book: Potency of Oc1cccc2cccnc12 noted as inactive

###

EXPERIMENT SUMMARY: Quantitative high throughput screen for delayed death inhibitors of the malarial parasite plastid, 48 hour incubation (AID 488752); also: nearly all actives have a fitted effect of over 65% in size
STATED CONDITIONS: Plasmodium falciparum growth; series mostly up to 28.7 µM
Description: NIH Molecular Libraries Probe Production Network [MLPCN] NIH Chemical Genomics Center [NCGC] Assay Provider: David Fidock and Eric Ekland, Columbia University […] We have developed a cell-based assay that measures parasite growth based on the expression of an integrated copy of a firefly luciferase reporter. […] Growth inhibition is detected by a decrease in luciferase activity […]
Records with an inconclusive call do not appear. Active and inactive are the calls of the source. Calls follow the shape of the dose curve; as a rule, active = well fitted inhibition curve with a large enough effect; inconclusive = small, poorly fitted or top-dose-only effect, or effect the other way; inactive = flat fitted curve, though single readings scatter.
Give one outcome, nothing more. List: yes (1) for active, no (0) for inactive

Qu. Please let me know the test result on file for CN1C[C@H](CNC(=O)OCc2ccccc2)C[C@@H]2c3cccc4c3c(cn4C)C[C@H]21 .
Ans. yes (1)

Qu. Please let me know the test result on file for CCn1cc(C(=O)O)c(=O)c2ccc(C)nc21 .
Ans. no (0)

Qu. Please let me know the test result on file for C=C(C)[C@H]1Cc2c(ccc3c2O[C@@H]2COc4cc(OC)c(OC)cc4[C@@H]2C3=O)O1 .
Ans. no (0)

Qu. Please let me know the test result on file for NCC1(CC(=O)O)CCCCC1 .
Ans. no (0)

Qu. Please let me know the test result on file for CN(C)C(=O)C(CCN1CCC(O)(c2ccc(Cl)cc2)CC1)(c1ccccc1)c1ccccc1 .
Ans. yes (1)

Qu. Please let me know the test result on file for COc1ccc(Cc2nccc3cc(OC)c(OC)cc23)cc1OC .
Ans. no (0)

Qu. Please let me know the test result on file for CC(CCc1ccccc1)NC(C)C(O)c1ccc(O)cc1 (stereo unspecified) .
Ans. no (0)

Qu. Please let me know the test result on file for Cc1ncc(CNC(=O)N(CCCl)N=O)c(N)n1 .
Ans. no (0)

Qu. Please let me know the test result on file for Clc1cccc(N2CCNCC2)c1 .
Ans. no (0)

Qu. Please let me know the test result on file for NCC(CC(=O)O)c1ccc(Cl)cc1 (stereo unspecified) .
Ans. no (0)

Qu. Please let me know the test result on file for CNCC(O)c1ccc(O)cc1 (stereo unspecified) .
Ans. no (0)

###

EXPERIMENT SUMMARY: qHTS assay for small molecule antagonists of the retinoid-related orphan receptor gamma (ROR-gamma) signaling pathway - cell viability counter screen (AID 720652);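 also: compound exposure lasted 16 hr before ATP read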
STATED CONDITIONS: RORgamma reporter cell line viability counter screen; series mostly up to 92.2 µM
Inconclusive results are not listed. Calls of active or inactive are those of the source. The call rests on the fitted dose curve; in most records, active means well fitted cell-killing curve with a large enough effect in the repeat runs; inconclusive means weak or mixed curves, or effect the other way; inactive means flat fitted curve, though single readings scatter.
Give one outcome, nothing more. List: active, inactive

Qu. Please let me know the test result on file for N[C@@H](Cc1ccc(N(CCCl)CCCl)cc1)C(=O)O .
Ans. active

Qu. Please let me know the test result on file for c1ccc2c(c1)Nc1ccccc1S2 .
Ans. inactive

Qu. Please let me know the test result on file for OCCOc1ccccc1 .
Ans. inactive

Qu. Please let me know the test result on file for CNCC(O)c1ccc(O)cc1 (configuration not stated) .
Ans. inactive

Qu. Please let me know the test result on file for CCOP(=S)(OCC)Oc1cc(C)nc(C(C)C)n1 .
Ans. inactive

Qu. Please let me know the test result on file for CCCC(C)(COC(N)=O)COC(=O)NC(C)C (configuration not stated) .
Ans. inactive

Qu. Please let me know the test result on file for Oc1ccc(Cl)cc1Cc1ccccc1 .
Ans. inactive
